assay: Millimolar relaxivity r1p from T1 measurements in water, HSA 4% and human plasma (0.47T/20 MHz, 25° C.); format: physicochemical; settings: HSA 4%
Recorded measurements of log10(r1p), one per entry
Please note: log10 values; quantity r1p; unit mM⁻¹ s⁻¹.

Solved cases (6 shown):
[[record]]
compound = "CCCCCCCCN(CCCCCCCC)C(=O)C1CCC(C2(N(CC(=O)[O-])CC(=O)[O-])CN(CC(=O)[O-])CCN(CC(=O)[O-])C2)CC1.[Gd+3].[Na+] (stereo not drawn) [Compound 25b]"
observed_result = 1.61

[[record]]
compound = "CCCCCCCCCCN(CCCCCCCCCC)C(=O)C1CCC(C2(N(CC(=O)[O-])CC(=O)[O-])CN(CC(=O)[O-])CCN(CC(=O)[O-])C2)CC1.[Gd+3].[Na+] (stereo not drawn) [Compound 25a]"
observed_result = 1.66

[[record]]
compound = "CC(O)CN1CCN(CC(=O)[O-])CCN(CC(=O)[O-])CCN(CC(=O)[O-])CC1.[Gd+3] (stereo not drawn) [Gd-HP-DO3A, reference compound]"
observed_result = 0.59

[[record]]
compound = "CCCCCCCCCC(=O)OC[C@H](COP(=O)([O-])OCCNC(=O)C1CCC(C2(N(CC(=O)[O-])CC(=O)[O-])CN(CC(=O)[O-])CCN(CC(=O)[O-])C2)CC1)OC(=O)CCCCCCCCC.[Gd+3].[Na+].[Na+] (stereo partly drawn) [Compound 25c]"
observed_result = 1.60

[[record]]
compound = "C[NH2+]C[C@H](O)[C@@H](O)[C@H](O)[C@H](O)CO.C[NH2+]C[C@H](O)[C@@H](O)[C@H](O)[C@H](O)CO.O=C([O-])CN(CCN(CC(=O)[O-])CC(=O)[O-])CCN(CC(=O)[O-])C(COCc1ccccc1)C(=O)[O-].[Gd+3] (stereo not drawn) [Gd-BOPTA, reference compound]"
observed_result = 0.95

[[record]]
compound = "CCCCCCCCCCN(CCCCCCCCCC)C(=O)CCCCC1(N(CC(=O)[O-])CC(=O)[O-])CN(CC(=O)[O-])CCN(CC(=O)[O-])C1.[Gd+3].[Na+] [Compound 12d]"
observed_result = 1.67


Entry under test: O=C([O-])CN1CCN(CC(=O)[O-])CCN([C@H](CO)[C@H](O)CO)CCN(CC(=O)[O-])CC1.[Gd+3] [Gd-BT-DO3A, reference compound] . Its log10(r1p) was 0.63

Entry under test: C[NH2+]C[C@H](O)[C@@H](O)[C@H](O)[C@H](O)CO.O=C([O-])CN1CCN(CC(=O)[O-])CCN(CC(=O)[O-])CCN(CC(=O)[O-])CC1.[Gd+3] [Gd-DOTA, reference compound] . Its log10(r1p) was 0.61

Entry under test: CCCCCCCCCCCCN(CCCCCCCCCCCC)C(=O)CCCCC1(N(CC(=O)[O-])CC(=O)[O-])CN(CC(=O)[O-])CCN(CC(=O)[O-])C1.[Gd+3].[Na+] [Compound 12e] . Its log10(r1p) was 1.61

* * *

test: Stability at 37° C. of diazepine complexes determined through r1p measurement in different media; type: physicochemical; conditions: Water; T0; 0.47T, 25° C.
Recorded measurements of r1p (stability at 37° C.), one per entry
Reply with just the number (in mM⁻¹ s⁻¹).

Solved cases (3 shown):
[[record]]
compound = "CCCCCCCCCCCC(=O)OC[C@H](COP(=O)(O)OCCNC(=O)CCCCC1(N(CC(=O)[O-])CC(=O)[O-])CN(CC(=O)[O-])CCN(CC(=O)[O-])C1)OC(=O)CCCCCCCCCCC.[Gd+3].[Na+]"
measurement_unit = "mM⁻¹ s⁻¹"
observed_result = 16.7

[[record]]
compound = "CCCCCCCCCCN(CCCCCCCCCC)C(=O)CCCCC1(N(CC(=O)[O-])CC(=O)[O-])CN(CC(=O)[O-])CCN(CC(=O)[O-])C1.[Gd+3].[Na+] [Compound 12d]"
measurement_unit = "mM⁻¹ s⁻¹"
observed_result = 23.5

[[record]]
compound = "CCCCCCCCCCCCN(CCCCCCCCCCCC)C(=O)CCCCC1(N(CC(=O)[O-])CC(=O)[O-])CN(CC(=O)[O-])CCN(CC(=O)[O-])C1.[Gd+3].[Na+] [Compound 12e]"
measurement_unit = "mM⁻¹ s⁻¹"
observed_result = 33.4


Entry under test: CCCCCCCCCCN(CCCCCCCCCC)C(=O)C1CCC(C2(N(CC(=O)[O-])CC(=O)[O-])CN(CC(=O)[O-])CCN(CC(=O)[O-])C2)CC1.[Gd+3].[Na+] (stereo not shown) [Compound 25a] . Its r1p (stability at 37° C.) was 23.9

* * *

Recorded measurements of log10 of r1p, one per entry
assay: Millimolar relaxivity r1p from T1 measurements in water, HSA 4% and human plasma (0.47T/20 MHz, 25° C.); format: physicochemical; settings: Water
Please note: log10 values; quantity r1p; unit mM⁻¹ s⁻¹.

Solved cases (4 shown):
[[record]]
molecule = "CCCCCCCCCCCC(=O)OC[C@H](COP(=O)(O)OCCNC(=O)CCCCC1(N(CC(=O)[O-])CC(=O)[O-])CN(CC(=O)[O-])CCN(CC(=O)[O-])C1)OC(=O)CCCCCCCCCCC.[Gd+3].[Na+]"
observed_result = 1.22

[[record]]
molecule = "C[NH2+]C[C@H](O)[C@@H](O)[C@H](O)[C@H](O)CO.O=C([O-])CN1CCN(CC(=O)[O-])CCN(CC(=O)[O-])CCN(CC(=O)[O-])CC1.[Gd+3] [Gd-DOTA, reference compound]"
observed_result = 0.56

[[record]]
molecule = "CCCCCCCCCCN(CCCCCCCCCC)C(=O)C1CCC(C2(N(CC(=O)[O-])CC(=O)[O-])CN(CC(=O)[O-])CCN(CC(=O)[O-])C2)CC1.[Gd+3].[Na+] (centres unmarked) [Compound 25a]"
observed_result = 1.38

[[record]]
molecule = "CC(O)CN1CCN(CC(=O)[O-])CCN(CC(=O)[O-])CCN(CC(=O)[O-])CC1.[Gd+3] (centres unmarked) [Gd-HP-DO3A, reference compound]"
observed_result = 0.52


Then this molecule:
Entry under test: CCCCCCCCCCCCN(CCCCCCCCCCCC)C(=O)CCCCC1(N(CC(=O)[O-])CC(=O)[O-])CN(CC(=O)[O-])CCN(CC(=O)[O-])C1.[Gd+3].[Na+] [Compound 12e] . Its log10 of r1p was 1.52

* * *

Assay: Millimolar relaxivity r1p from T1 measurements in water, HSA 4% and human plasma (0.47T/20 MHz, 25° C.)
Type: physicochemical
Settings: Human plasma
Protocol: For all the compounds, longitudinal relaxation times (T1) at 20 MHz and at 25° C. on a mq20 Minispec instrument (Bruker Biospin, Germany) were measured in water, human serum albumin at physiological concentration and human plasma. […]
Readout label: r1p (mM⁻¹ s⁻¹)
Reply with just the number (in mM⁻¹ s⁻¹).

Solved cases (3 shown):
[[record]]
compound = "CCCCCCCCCCN(CCCCCCCCCC)C(=O)CCCCC1(N(CC(=O)[O-])CC(=O)[O-])CN(CC(=O)[O-])CCN(CC(=O)[O-])C1.[Gd+3].[Na+] [Compound 12d]"
measurement_unit = "mM⁻¹ s⁻¹"
observed_result = 45.2

[[record]]
compound = "CCCCCCCCCC(=O)OC[C@H](COP(=O)([O-])OCCNC(=O)C1CCC(C2(N(CC(=O)[O-])CC(=O)[O-])CN(CC(=O)[O-])CCN(CC(=O)[O-])C2)CC1)OC(=O)CCCCCCCCC.[Gd+3].[Na+].[Na+] (stereo partly shown) [Compound 25c]"
measurement_unit = "mM⁻¹ s⁻¹"
observed_result = 43.0

[[record]]
compound = "C[NH2+]C[C@H](O)[C@@H](O)[C@H](O)[C@H](O)CO.C[NH2+]C[C@H](O)[C@@H](O)[C@H](O)[C@H](O)CO.O=C([O-])CN(CCN(CC(=O)[O-])CC(=O)[O-])CCN(CC(=O)[O-])C(COCc1ccccc1)C(=O)[O-].[Gd+3] (stereo not shown) [Gd-BOPTA, reference compound]"
measurement_unit = "mM⁻¹ s⁻¹"
observed_result = 8.7


Then this compound:
Entry under test: CCCCCCCCCCN(CCCCCCCCCC)C(=O)C1CCC(C2(N(CC(=O)[O-])CC(=O)[O-])CN(CC(=O)[O-])CCN(CC(=O)[O-])C2)CC1.[Gd+3].[Na+] (stereo not shown) [Compound 25a] . Its r1p was 41.1

* * *

assay: Millimolar relaxivity r1p from T1 measurements in water, HSA 4% and human plasma (0.47T/20 MHz, 25° C.); format: physicochemical; conditions: Human plasma
Recorded measurements of r1p, one per entry
Reply with just the number (in mM⁻¹ s⁻¹).

[[record]]
compound = "CCCCCCCCN(CCCCCCCC)C(=O)C1CCC(C2(N(CC(=O)[O-])CC(=O)[O-])CN(CC(=O)[O-])CCN(CC(=O)[O-])C2)CC1.[Gd+3].[Na+] (centres unmarked) [Compound 25b]"
measurement_unit = "mM⁻¹ s⁻¹"
observed_result = 39.1

[[record]]
compound = "CCCCCCCCN(CCCCCCCC)C(=O)CCCCC1(N(CC(=O)[O-])CC(=O)[O-])CN(CC(=O)[O-])CCN(CC(=O)[O-])C1.[Gd+3].[Na+] [Compound 12c]"
measurement_unit = "mM⁻¹ s⁻¹"
observed_result = 50.2


Entry under test: O=C([O-])CN1CCN(CC(=O)[O-])CCN([C@H](CO)[C@H](O)CO)CCN(CC(=O)[O-])CC1.[Gd+3] [Gd-BT-DO3A, reference compound] . Its r1p was 5.76

Entry under test: CCCCCCCCCCCCN(CCCCCCCCCCCC)C(=O)CCCCC1(N(CC(=O)[O-])CC(=O)[O-])CN(CC(=O)[O-])CCN(CC(=O)[O-])C1.[Gd+3].[Na+] [Compound 12e] . Its r1p was 36.2

Entry under test: CCCCCCN(CCCCCC)C(=O)CCCCC1(N(CC(=O)[O-])CC(=O)[O-])CN(CC(=O)[O-])CCN(CC(=O)[O-])C1.[Gd+3].[Na+] [Compound 12b] . Its r1p was 33.7

All values here come from patent US9259491B2.
